Reference source: the supplement of paper PMC13380429

Entries and their cell viability values follow.
# Tested on: Caco-2
# measurementDescription: cell viability relative to DMSO; higher = less toxic
# condition: 72 h; 1000 nM
Give the figure together with its unit, number first.

Prompt: Consider the compound shown here: `C[C@@H](CN1CC(=O)NC(=O)C1)N1CC(=O)NC(=O)C1` What is its recorded cell viability?
Completion: 105%

Prompt: Item: `COc1cc2c(NC3CCN(CC4CCCCC4)CC3)nc(N3CCCN(C(C)C)CC3)nc2cc1OCCCN1CCCCC1`
Completion: 84.4%

Prompt: Item: CCCCCCCCCCC(=O)O[C@H]1CC[C@H]2[C@@H]3CCC4=CC(=O)CC[C@]4(C)[C@H]3CC[C@]12C [Testosterone (undecanoate)]
Completion: 96.7%

Prompt: Item: `CCO[C@@H]1OC(=O)C[C@@H]1NC(=O)[C@@H]1CCCN1C(=O)[C@@H](NC(=O)c1ccc(N)c(Cl)c1)C(C)(C)C`
Completion: 98%

Prompt: Item: `CCOc1cc2ncc(C#N)c(Nc3ccc(OCc4ccccn4)c(Cl)c3)c2cc1NC(=O)/C=C/CN(C)C`
Completion: 54.7%

---

# System: HepG2
# measurementDescription: cell viability relative to DMSO; higher = less toxic
# condition: 72 h; 100 nM
Entries and their cell viability values follow.
All answers are understood in %, so give the number only.

Worked cases, answers included:
C#CCN[C@@H]1CCc2ccccc21 | 110
N[C@H](C(=O)O)c1ccc(O)cc1 | 96.9
CCCCn1c(=O)c2[nH]c(C34CC5CC(CC3C5)C4)nc2n(CCCO)c1=O | 103

Prompt: Form entry - test system: HepG2; read-out: cell viability; compound: O=C(NCc1ccc(OC(F)(F)F)cc1)C1c2ccccc2C(=O)N1C1CCOCC1 (stereo not drawn)
Completion: 96.7

Prompt: Item: `O=C(O)c1cc(O)c2c(c1)C(=O)c1cccc(O)c1C2=O`
Completion: 106

Prompt: Item: `COc1cc(S(C)(=O)=O)ccc1Nc1nc2ccc(-c3ccc(NC(=O)[C@H](C)c4ccc(F)cc4)cc3)cn2n1`
Completion: 106

Prompt: Item: O=P1(NCCCl)OCCCN1CCCl (stereo not drawn) [ifosfamide]
Completion: 95.9

Prompt: Item: COc1ccc(CCNCC(O)COc2cccc(C)c2)cc1OC (stereo not drawn)
Completion: 99.7

Prompt: Item: CC(=O)OCC(=O)[C@@]1(OC(C)=O)[C@@H](C)C[C@H]2[C@@H]3C[C@H](F)C4=CC(=O)C=C[C@]4(C)[C@@]3(F)[C@@H](O)C[C@@]21C [diflorasone-diacetate]
Completion: 87.9

Prompt: Item: `Cc1cc(O)c(C(C)C)cc1Cl`
Completion: 92.9

Prompt: Item: `N#C/C(=C\c1cccn1S(=O)(=O)c1cccc([N+](=O)[O-])c1)S(=O)(=O)c1ccc(F)cc1`
Completion: 119

Prompt: Item: `CNCCN(C)Cc1c[nH]nc1-c1ccc(O[C@H]2C[C@H](OCCC3CCOCC3)C2)cc1`
Completion: 109

Prompt: Item: `CN1CCN(C(=O)c2cc3cc(Cl)ccc3[nH]2)CC1`
Completion: 92.5

Prompt: Item: O=S(=O)(F)Cc1ccccc1 [phenylmethylsulfonyl-fluoride]
Completion: 97.8

Prompt: Item: `Cn1c(=O)n(-c2ccc(C(C)(C)C#N)cc2)c2c3cc(-c4cnc5ccccc5c4)ccc3ncc21`
Completion: 98.4

Prompt: Item: `NC(=O)c1ncn([C@@H]2O[C@H](CO)[C@@H](O)[C@H]2O)c1N`
Completion: 105

Prompt: Item: CCCCC(CC)CNC(=N)NC(=N)NCCCCCCNC(=N)NC(=N)NCC(CC)CCCC (stereo not drawn)
Completion: 105

Prompt: Item: NC[C@H](O)c1ccc(O)c(O)c1 [norepinephrine]
Completion: 96

Prompt: Item: Cc1cc(/C=C/c2ccc3cc(N(C)C)ccc3[n+]2C)c(C)n1-c1ccccc1 [pyrvinium-pamoate]
Completion: 98

Prompt: Item: `CN1CCC(c2c[nH]c3ccc(O)cc23)CC1`
Completion: 94.4

Prompt: Item: COc1ccc2c(c1)C(C(=O)N(Cc1ccc(N(C)C)cc1)c1ccc(C(C)C)cc1)CCC2 (stereo not drawn)
Completion: 98.5

Prompt: Item: `Cc1cc2c(N3CCCC3)nc(N3CCCC3)nc2n1C`
Completion: 101

Prompt: Item: `FC(F)(F)c1cccc(-c2noc(-c3cc(-c4ccccc4)c(C(F)(F)F)s3)n2)c1`
Completion: 93.9

---

Entries and their cell viability values follow.
# Test system: Caco-2
# measurementDescription: cell viability relative to DMSO; higher = less toxic
# condition: 72 h; 1 nM
All answers are understood in %, so give the number only.

Worked cases, answers included:
C=CC[C@]1(O)CC[C@H]2[C@@H]3CCC4=CC(=O)CCC4=C3C=C[C@@]21C | 102
CC(=O)OCC(=O)[C@@]1(OC(C)=O)[C@@H](C)C[C@H]2[C@@H]3C[C@H](F)C4=CC(=O)C=C[C@]4(C)[C@@]3(F)[C@@H](O)C[C@@]21C [diflorasone-diacetate] | 110
O=C(C[C@H]1CC(c2ccc(F)cc2F)=NO1)N1CCOCC1 (racemic) [CPSI-1306-(+/-)] | 93.7
O=C(c1ccc(OCCN2CCCCC2)cc1)c1c(-c2ccc(O)cc2)sc2cc(O)ccc12 | 108
O=C(Nc1ccc(C(F)(F)F)cn1)N1CCN(c2ncccc2C(F)(F)F)CC1 | 97.9

Here is the next item to consider.
Prompt: Consider the compound shown here: `COC(=O)c1c(C)[nH]c(C)c1C(=O)c1ccccc1Cc1ccccc1` What is its recorded cell viability?
Completion: 98.6

---

# Tested on: Calu-3
# measurementDescription: cell viability relative to DMSO; higher = less toxic
# condition: 72 h; 1000 nM
reportedEndpoint: cell viability
Give the figure together with its unit, number first.

CNCCN(C)Cc1c[nH]nc1-c1ccc(O[C@H]2C[C@H](OCCC3CCOCC3)C2)cc1 | 100%
N[C@@H]1CN(c2c(F)cc3c(=O)c(C(=O)O)cn([C@@H]4C[C@@H]4F)c3c2Cl)CC12CC2 | 96.7%

Here is the next item to consider.
Prompt: Consider the compound shown here: CCC(=O)[C@@]1(C)[C@H](C)C[C@H]2[C@@H]3CCC4=CC(=O)C=C[C@]4(C)[C@H]3[C@@H](O)C[C@@]21C [rimexolone] What is its recorded cell viability?
Completion: 102%

---

Entries and their cell viability values follow.
# Test system: HepG2
# measurementDescription: cell viability relative to DMSO; higher = less toxic
# condition: 72 h; 10000 nM
All answers are understood in %, so give the number only.

Worked cases, answers included:
CNc1ccc([N+](=O)[O-])cc1-n1cnc(-c2ccc(C(F)(F)F)cc2)c1 [CU-T12-9] | 91.3
CCC[C@H](N[C@@H](C)C(=O)N1[C@H](C(=O)O)C[C@@H]2CCCC[C@@H]21)C(=O)OCC [perindopril] | 92.4

Prompt: Consider the molecule shown here: N#Cc1nn(-c2c(Cl)cc(C(F)(F)F)cc2Cl)c(N)c1[S+]([O-])C(F)(F)F (stereo not given) [fipronil] What is its recorded cell viability?
Completion: 103

Prompt: Item: Cc1cc(/C=C/c2ccc3cc(N(C)C)ccc3[n+]2C)c(C)n1-c1ccccc1 [pyrvinium-pamoate]
Completion: 9.6

Prompt: Item: CN/C(=N\S(=O)(=O)c1ccc(Cl)cc1)N1C[C@H](c2ccccc2)C(c2ccc(Cl)cc2)=N1 (racemic) [SLV-319-(+/-)]
Completion: 93.7

---

Entries and their cell viability values follow.
# System: Vero E6
# measurementDescription: cell viability relative to DMSO; higher = less toxic
# condition: 72 h; 10 nM
All answers are understood in %, so give the number only.

Worked cases, answers included:
CCCCN(CCCC)CCC(O)c1cc2c(Cl)cc(Cl)cc2c2cc(C(F)(F)F)ccc12 (stereo unspecified) | 103
FC(F)(F)c1cccc(-c2noc(-c3cc(-c4ccccc4)c(C(F)(F)F)s3)n2)c1 | 98
CC(C)Oc1ccc(Cc2ccc(NC3=NCCN3)cc2)cc1 | 97.6
COc1ccc(-c2cc(=O)c3c(OC)c(OC)c(OC)c(OC)c3o2)cc1OC | 104
C/C(=C\C(=O)Nc1ccccc1C(=O)O)c1ccc2ccccc2c1 | 99.9

Here is the next item to consider.
Prompt: Consider the compound shown here: `Cc1c(-c2cnccn2)ssc1=S` What is its recorded cell viability?
Completion: 95.2

---

Entries and their cell viability values follow.
# Tested on: Calu-3
# measurementDescription: cell viability relative to DMSO; higher = less toxic
# condition: 72 h; 10000 nM
All answers are understood in %, so give the number only.

Worked cases, answers included:
C[C@@]1(c2cc(-c3cncnc3)c(F)cc2F)CCSC(N)=N1 | 101
Cn1cnc2c1c(=O)[nH]c(=O)n2C | 98.8
CN1CCN(C(=O)c2cc3cc(Cl)ccc3[nH]2)CC1 | 93.8

Prompt: Form entry - test system: Calu-3; read-out: cell viability; compound: `c1ccc2cc(C3=NCCN3)ncc2c1`
Completion: 91.8
